test system: Saccharomyces cerevisiae; experiment: protein stability index of tFT-peptide fusion (C-terminal peptide) (PSI (0-1 scale)); higher = more stable (slower turnover); conditions: genetic background: wild type; temperature: 30 C
Answer each item with its documented protein stability index.
I'd appreciate a reply containing only the number, no unit.

Name the recorded protein stability index for CLAPPTFAPSSL .
0.752

What do you have for IKKKKKVRYIRI ?
0.705

What do you have for FVHEHQPRHEST ?
0.677

What do you have for HVLSQSLSALPC ?
0.681

What do you have for DLVLVSSQMPFA ?
0.683

What do you have for RCLRGGMLGFGR ?
0.627

----------
Answer each item with its documented protein stability index.
system: Saccharomyces cerevisiae; experiment: protein stability index of tFT-peptide fusion (C-terminal peptide) (PSI (0-1 scale)); higher = more stable (slower turnover); settings: genetic background: wild type; temperature: 30 C
I'd appreciate a reply containing only the number, no unit.

Name the recorded protein stability index for GGGSGGREPGGS .
0.726

What do you have for YPLRVSRCWSPP ?
0.773

What do you have for SRYSAVSVSRWH ?
0.696

What do you have for PGATSAIPPPFT ?
0.738

What do you have for SPYVGVALGGVW ?
0.704

What do you have for PPPPRPAPSAPY ?
0.676

What do you have for DYPQWWEEQHVP ?
0.797

What do you have for DVGFGWGGGVGG ?
0.76

What do you have for SPRLSSCPPAGF ?
0.749

----------
test system: Saccharomyces cerevisiae; test: protein stability index of tFT-peptide fusion (C-terminal peptide) (PSI (0-1 scale)); higher = more stable (slower turnover); conditions: genetic background: wild type; temperature: 30 C
Threshold check on protein stability index: at or above 0.7 gives Criterion met, strictly below gives Criterion not met.

Threshold query (protein stability index >= 0.7) on AWEWMTVQVVRG
Criterion not met

What do you have for DRPRPLPTPLPP ?
Criterion not met

What do you have for CSPSCNIVRLVS ?
Criterion not met

What do you have for ISATYSYIPVVG ?
Criterion not met

What do you have for PPLLLFLSLAFL ?
Criterion not met

What do you have for QVWMRDCARKFQ ?
Criterion met

What do you have for EERLGIIVRSDR ?
Criterion not met

What do you have for TYPSWIYELNKT ?
Criterion met

What do you have for LGGGPTGARPAM ?
Criterion met

What do you have for VLSYFFLFSCAS ?
Criterion not met

What do you have for SSALVLSGPPHS ?
Criterion met

----------
system: Saccharomyces cerevisiae; experiment: protein stability index of tFT-peptide fusion (C-terminal peptide) (PSI (0-1 scale)); higher = more stable (slower turnover); conditions: genetic background: wild type; temperature: 30 C
measurement-label: protein stability index
I'd appreciate a reply containing only the number, no unit.

Name the recorded protein stability index for LEHGLKVRMDEE [HIS7 C-terminal 12 aa] .
0.72

What do you have for TVNYNDKTISGN [VPS30 C-terminal 12 aa] ?
0.692

What do you have for SFDDGRVKRQRT [IOC3 C-terminal 12 aa] ?
0.715

What do you have for KAKFEGKKIKFD [BUD22 C-terminal 12 aa] ?
0.709

What do you have for LMNAQSNETKLN [PTC6 C-terminal 12 aa] ?
0.692

----------
Answer each item with its documented protein stability index.
system: Saccharomyces cerevisiae; assay: protein stability index of tFT-peptide fusion (C-terminal peptide) (PSI (0-1 scale)); higher = more stable (slower turnover); details: genetic background: wild type; temperature: 30 C
I'd appreciate a reply containing only the number, no unit.

GET /values?readout=protein stability index&system=Saccharomyces cerevisiae&item= ESISYLFKNYPL [PRS3 C-terminal 12 aa]
0.694

What do you have for SQLLLFGFGAMV [MDM32 C-terminal 12 aa] ?
0.705

What do you have for VYTSKTQYKFDI [YNR071C C-terminal 12 aa] ?
0.694

What do you have for LRNKPFWENKRL [IPL1 C-terminal 12 aa] ?
0.696

What do you have for IHSTKEEKNCNH [YDR095C C-terminal 12 aa] ?
0.683

What do you have for CTSLLKGERKKE [RRT8 C-terminal 12 aa] ?
0.685

What do you have for RKESSGGCCIIC [RAS1 C-terminal 12 aa] ?
0.709

----------
Answer each item with its documented protein stability index.
test system: Saccharomyces cerevisiae; assay: protein stability index of tFT-peptide fusion (C-terminal peptide) (PSI (0-1 scale)); higher = more stable (slower turnover); conditions: genetic background: wild type; temperature: 30 C
I'd appreciate a reply containing only the number, no unit.

Name the recorded protein stability index for PCPHPLRPALIL .
0.704

What do you have for GGSGHGAGAVWG ?
0.698

What do you have for ALPPPIPHPLFL ?
0.701

What do you have for SFRPPSTPRRRT ?
0.695

What do you have for GKINPKMEIWIE ?
0.701

What do you have for ADWGSRRPSRCP ?
0.689

What do you have for RAPVRPSEYTRP ?
0.681

What do you have for YVARERWEGCRI ?
0.7

What do you have for QPPSPHTLRADI ?
0.787

What do you have for PPPSPPPLPDPH ?
0.697

What do you have for YSHSRVNPDAWG ?
0.669

What do you have for HRCLSRTVSPPS ?
0.671

What do you have for YDLRRIGRIGVG ?
0.363

What do you have for PQTVAHPPPPPR ?
0.688

What do you have for QKKKKEKQKKKG ?
0.692

What do you have for MPRSGRLSSRKE ?
0.718

What do you have for GDLKWVGLGVQR ?
0.687

What do you have for PPAPAPPAPPPL ?
0.649

What do you have for SPLLVLTPLFPP ?
0.651

What do you have for LSSPPSRPFAPS ?
0.721

What do you have for LLLPNPTPPPPP ?
0.625

What do you have for CGCLPYIGTKLC ?
0.165

What do you have for VPWVFVYGEGVR ?
0.734

What do you have for DYCARQRLLDQF ?
0.685

What do you have for SLSIAPAPLDFP ?
0.655

What do you have for VSRCHLLDLSLV ?
0.642

What do you have for GSGGGVRRTIML ?
0.739

What do you have for LFGNPVLSYFVI ?
0.555

What do you have for LFFWWVAVVFRV ?
0.23

What do you have for QHHDPYPHQRSP ?
0.686

What do you have for AEAKAVKSVSVR ?
0.638

What do you have for PTRQKRPPYRIK ?
0.711

----------
Answer each item with its documented protein stability index.
system: Saccharomyces cerevisiae; assay: protein stability index of tFT-peptide fusion (C-terminal peptide) (PSI (0-1 scale)); higher = more stable (slower turnover); details: genetic background: wild type; temperature: 30 C
I'd appreciate a reply containing only the number, no unit.

Name the recorded protein stability index for ELSRLLPASFSL .
0.696

What do you have for RRLANMIFFLGG ?
0.69

What do you have for YLQPSGSRPGAK ?
0.715

What do you have for PSPYFPVPLLPS ?
0.701

What do you have for GVGAISLGFSWL ?
0.717

What do you have for SRFKTVDCWKVW ?
0.697

What do you have for PYLLSLLSPLPL ?
0.7

What do you have for RQHYFDVLGEMY ?
0.711

What do you have for VIPSCMVFSSTG ?
0.71

What do you have for PLPPLPPPPPAA ?
0.682

What do you have for PQLLGWCVGPCR ?
0.694

What do you have for SLSVPTTLFLFS ?
0.7

What do you have for RSTPALRPVDLE ?
0.707

What do you have for ARIGVQRFSGVV ?
0.708

What do you have for YPHAGSTSLLLF ?
0.685

What do you have for PPAPPHPPPLSP ?
0.695

What do you have for PTVNIDSQSRSP ?
0.692

What do you have for CLGLVSLSGGAR ?
0.712

What do you have for QFWRSSSSRLAS ?
0.687

What do you have for PLSPLVPVRTRP ?
0.682

What do you have for PFSAPRRLPRTV ?
0.697

What do you have for WGGRSVGGVVWR ?
0.714

What do you have for RRYLREEDVQEK ?
0.696

What do you have for TEGGSSKPSSNP ?
0.704

What do you have for GAGCRDSSRRRT ?
0.687

What do you have for GATLWGMAWGAR ?
0.682

What do you have for VCSLTFFGLCRP ?
0.69

What do you have for PFFSFLYPRFYF ?
0.682

What do you have for YRPPFPAALFSE ?
0.696

What do you have for FAVLGGGVGGGG ?
0.683

What do you have for YGPRNRNPPNAG ?
0.688

What do you have for SRKIAPNGTATL ?
0.706

What do you have for WFLVQQCGQMDR ?
0.711

What do you have for REEKRREEEGKK ?
0.701
